The values you see were collected from the supplement of paper PMC10307832.

# Test system: 201T
# measurement_notes: relative viability (nuclei count vs DMSO), 5 days (fraction); higher = more cells survive
# protocol_conditions: first compound 0.04 µM
In plain terms, low relative viability, meaning strictly below 0.7, gives true (1), and everything else gives false (0).

{"compound": "Cc1sc2c(c1C)C(c1ccc(Cl)cc1)=N[C@@H](CC(=O)OC(C)(C)C)c1nnc(C)n1-2 [JQ1] + CC(C)C[C@H](NC(=O)[C@H](Cc1ccccc1)NC(=O)c1cnccn1)B(O)O [Bortezomib] (partner 0.002 µM)", "assigned_class": "false (0)"}
{"compound": "Cc1sc2c(c1C)C(c1ccc(Cl)cc1)=N[C@@H](CC(=O)OC(C)(C)C)c1nnc(C)n1-2 [JQ1] + C[C@]1(O)C[C@@H](c2nc(-c3ccc4ccc(-c5ccccc5)nc4c3)c3c(N)nccn32)C1 [Linsitinib] (partner 1 µM)", "assigned_class": "false (0)"}
{"compound": "Cc1sc2c(c1C)C(c1ccc(Cl)cc1)=N[C@@H](CC(=O)OC(C)(C)C)c1nnc(C)n1-2 [JQ1] + C[C@@H](Oc1cc(-c2cnn(C3CCNCC3)c2)cnc1N)c1c(Cl)ccc(F)c1Cl [Crizotinib] (partner 1 µM)", "assigned_class": "false (0)"}

Strictly below 0.7: is that where relative viability of Cc1sc2c(c1C)C(c1ccc(Cl)cc1)=N[C@@H](CC(=O)OC(C)(C)C)c1nnc(C)n1-2 [JQ1] + CC(=O)c1c(C)c2cnc(Nc3ccc(N4CCNCC4)cn3)nc2n(C2CCCC2)c1=O [Palbociclib] (partner 0.5 µM) sits?
true (1)

Strictly below 0.7: is that where relative viability of Cc1sc2c(c1C)C(c1ccc(Cl)cc1)=N[C@@H](CC(=O)OC(C)(C)C)c1nnc(C)n1-2 [JQ1] + Cc1nc(Nc2ncc(C(=O)Nc3c(C)cccc3Cl)s2)cc(N2CCN(CCO)CC2)n1 [Dasatinib] (partner 0.075 µM) sits?
true (1)

Strictly below 0.7: is that where relative viability of Cc1sc2c(c1C)C(c1ccc(Cl)cc1)=N[C@@H](CC(=O)OC(C)(C)C)c1nnc(C)n1-2 [JQ1] + CS(=O)(=O)N1CCN(Cc2cc3nc(-c4cccc5[nH]ncc45)nc(N4CCOCC4)c3s2)CC1 [Pictilisib] (partner 1 µM) sits?
true (1)
